Assay: Organoleptic test in combination with sucrose against sucrose (sucrose enhancement), 2-AFC
Assay type: in vivo
Parameters: key: 3: sweeter than the control solution; 2: sweetness comparable with the control solution; 1: less sweet than the control solution but still sweet; 0: no intrinsic sweetness
Conditions: compound 50 ppm in 6% sucrose solution vs 6% sucrose; 12 to 15 panelists
Measured Parameter: Sweet taste enhancement of sucrose, control solution Sucrose 6%
Kindly provide the number alone.

INPUT: Hello, please tell me recorded Sweet taste enhancement of sucrose, control solution Sucrose 6% for this one: CC(=O)O[C@@H]1C[C@](C)(C(=O)O)C[C@H]2C3=CCC4[C@@]5(C)CC[C@H](O[C@@H]6O[C@H](C(=O)O)[C@@H](O)[C@H](O)[C@H]6O[C@@H]6O[C@H](CO)[C@H](O)[C@H](O)[C@H]6O[C@@H]6O[C@@H](C)[C@H](O)[C@@H](O)[C@H]6O)C(C)(C)C5CC[C@@]4(C)[C@]3(C)CC[C@@]12C (stereo partly shown)
OUTPUT: 3

INPUT: Hello, please tell me recorded Sweet taste enhancement of sucrose, control solution Sucrose 6% for this one: COc1cc([C@H]2c3cc(O)c(OC)cc3C[C@@H](CO[C@@H]3O[C@H](CO)[C@@H](O)[C@H](O)[C@H]3O)[C@@H]2CO)ccc1O [Compound 3, Isolariciresinol 9-glucoside]
OUTPUT: 3

INPUT: Hello, please tell me recorded Sweet taste enhancement of sucrose, control solution Sucrose 6% for this one: CCCCCc1cc2cc(O)cc(Oc3c(O)cc(O)cc3CCCCC)c2c(=O)o1
OUTPUT: 3

INPUT: Hello, please tell me recorded Sweet taste enhancement of sucrose, control solution Sucrose 6% for this one: CC1=C(C(=O)O[C@@H]2O[C@H](CO[C@@H]3OC[C@@H](O)[C@H](O)[C@H]3O)[C@@H](O)[C@H](O)[C@H]2O)C(C)(C)CCC1 [Compound 2, Jasminoside M]
OUTPUT: 3
